# testedOn: MtBgl3a (Thermothelomyces thermophilus, UniProt G2QDN2)
# Construct: gene MYCTH_66804
# Sequence (G2QDN2 18-733): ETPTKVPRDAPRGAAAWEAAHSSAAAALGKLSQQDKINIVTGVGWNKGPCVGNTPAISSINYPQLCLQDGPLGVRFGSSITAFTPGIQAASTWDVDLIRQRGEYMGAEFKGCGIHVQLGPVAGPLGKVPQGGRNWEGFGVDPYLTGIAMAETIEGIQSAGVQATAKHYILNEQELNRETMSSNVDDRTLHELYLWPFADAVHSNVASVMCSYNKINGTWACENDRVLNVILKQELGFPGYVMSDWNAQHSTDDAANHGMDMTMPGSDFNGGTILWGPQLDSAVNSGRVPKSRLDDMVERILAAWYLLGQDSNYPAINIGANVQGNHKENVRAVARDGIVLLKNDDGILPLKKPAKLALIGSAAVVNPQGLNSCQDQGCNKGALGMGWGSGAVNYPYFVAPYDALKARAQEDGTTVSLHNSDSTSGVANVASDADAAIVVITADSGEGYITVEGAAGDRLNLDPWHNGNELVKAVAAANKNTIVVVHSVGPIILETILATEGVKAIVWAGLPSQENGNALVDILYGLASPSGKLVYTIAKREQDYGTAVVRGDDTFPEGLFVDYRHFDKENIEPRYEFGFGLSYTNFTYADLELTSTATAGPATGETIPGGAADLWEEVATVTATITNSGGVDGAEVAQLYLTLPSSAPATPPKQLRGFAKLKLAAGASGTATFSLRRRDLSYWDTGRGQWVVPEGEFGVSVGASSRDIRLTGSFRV
# procedureText: p-nitrophenol release, absorbance […] nm; Michaelis-Menten fit (GraFit)
# Format: biochemical
# measurementContext: competitive; substrate p-β-NPG, pH 5.0 citrate-phosphate
I'd be grateful if you could share measured Ki for these entries.
Numbers only, in µM.

# compound, unitOfMeasure, Ki
rows = [
    ("OC1OC[C@@H](O)[C@H](O)[C@H]1O (some centres unmarked)", "µM", 30),
]

Continue with the next compound.
Report Ki for OC[C@H]1OC(O)[C@H](O)[C@@H](O)[C@@H]1O (some centres unmarked) please.
282
